Reported Kd values follow for various compounds
# System: UniProtKB P01116
# Sequence (P01116 whole entry): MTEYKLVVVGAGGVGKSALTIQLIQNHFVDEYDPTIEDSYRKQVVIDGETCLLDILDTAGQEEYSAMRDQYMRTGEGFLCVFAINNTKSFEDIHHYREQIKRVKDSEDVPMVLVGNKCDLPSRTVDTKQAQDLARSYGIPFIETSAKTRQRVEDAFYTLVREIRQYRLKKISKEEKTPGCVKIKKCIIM
# Experiment notes: Binding to KRAS by surface plasmon resonance (SPR), Single Cycle Kinetics
# Condition description: SPR Single Cycle Kinetics, GDP-bound KRAS wild-type protein, 1:1 binding model; read-out: KRAS KD
Where a SMILES comes first, the peptide text is derived from it. Bridges are numbered along the chain shown (N, C = ends). [ ]: non-standard residue; d: D form. The star is where a group is joined. hPhe(3,5-F2-4-CF3) = N[C@@H](CCc1cc(F)c(C(F)(F)F)c(F)c1)C(=O)O; hPhe(3-Cl-4-CF3) = N[C@@H](CCc1ccc(C(F)(F)F)c(Cl)c1)C(=O)O; NPrPhe(4-CF3) = CCCN[C@@H](Cc1ccc(C(F)(F)F)cc1)C(=O)O; NMeAbu(4,4,4-F3) = CN[C@@H](CC(F)(F)F)C(=O)O; NMeGly(cPent) = CN[C@H](C(=O)O)C1CCCC1; Pro(4,4-F2) = O=C(O)[C@@H]1CC(F)(F)CN1; Pro(4S-Me) = C[C@@H]1CN[C@H](C(=O)O)C1; NMeD = CN[C@@H](CC(=O)O)C(=O)O; NMeL = CN[C@@H](CC(C)C)C(=O)O; NMeNva = CCC[C@H](NC)C(=O)O; Morpholide = C1CN(*)CCO1; Ac5c = NC1(C(=O)O)CCCC1; Aze = O=C(O)[C@@H]1CCN1; NPrGly = CCCNCC(=O)O; Sar = CNCC(=O)O
Report field: quantity (unit follows the number).

These solved cases illustrate the format of a correct answer.
# Compound, System, Kd
rows = [
    ("CCCN1C(=O)CN(C)C(=O)CNC(=O)[C@H]([C@@H](C)CC)NC(=O)[C@H](CC(C)C)N(C)C(=O)C[C@@H](C(=O)N2CCOCC2)NC(=O)[C@H](C2CCCC2)N(C)C(=O)C2(CCCC2)NC(=O)[C@@H]2CC(F)(F)CN2C(=O)[C@H](CCc2ccc(C(F)(F)F)c(Cl)c2)NC(=O)CN(C)C(=O)[C@@H]1Cc1ccc(C(F)(F)F)cc1 [PP0327] ([NMeL]IG[Sar][NPrPhe(4-CF3)][Sar][hPhe(3-Cl-4-CF3)][Pro(4,4-F2)][Ac5c][NMeGly(cPent)]D-Morpholide; lactam N-11)", "UniProtKB P01116", "1.9 nM"),
    ("CCCN1CC(=O)N2CC[C@H]2C(=O)N(CCC)[C@@H](Cc2ccc(C(F)(F)F)cc2)C(=O)N(C)CC(=O)N[C@@H](CCc2ccc(C(F)(F)F)c(Cl)c2)C(=O)N2CCC[C@H]2C(=O)NC2(CCCC2)C(=O)N(C)[C@@H](C2CCCC2)C(=O)N(C)[C@H](C(=O)N2CCOCC2)CC(=O)N(C)[C@@H](CC(C)C)C(=O)N[C@@H]([C@@H](C)CC)C1=O [PP0274] ([NMeL]I[NPrGly][Aze][NPrPhe(4-CF3)][Sar][hPhe(3-Cl-4-CF3)]P[Ac5c][NMeGly(cPent)][NMeD]-Morpholide; lactam N-11)", "UniProtKB P01116", "0.47 nM"),
    ("CCC(CC)[C@H]1C(=O)N(C)[C@H](C(=O)N(C)C)CC(=O)N(C)[C@H]2CCC/C=C/c3ccc(cc3)C[C@@H](C(=O)N(C)CC(=O)N[C@@H](CCc3cc(F)c(C(F)(F)F)c(F)c3)C(=O)N3C[C@H](OC(C)C)C[C@H]3C(=O)NC3(CC(C)(C)C3)C(=O)N1C)N1CC/C=C\\C[C@@H](C1=O)N(C)C(=O)CN(C)C(=O)[C@H]([C@@H](C)CC)NC2=O", "UniProtKB P01116", "0.1 nM"),
]

Reported Kd of `C=CC[C@H]1C(=O)N[C@@H]([C@@H](C)CC)C(=O)N(C)CC(=O)N(C)[C@H]2CCCCCN(C2=O)[C@@H](Cc2ccc(C(F)(F)F)cc2)C(=O)N(C)CC(=O)N[C@@H](CCc2cc(F)c(C(F)(F)F)c(F)c2)C(=O)N2C[C@H](OCC)C[C@H]2C(=O)NC2(CCC2)C(=O)N(C)[C@@H](C2CCCC2)C(=O)N(C)[C@H](C(=O)N(C)C)CC(=O)N1C` : 0.24 nM

According to the records, this compound `CCO[C@@H]1C[C@H]2C(=O)NC3(CC(C)(C)C3)C(=O)N(C)[C@@H](C3CCCC3)C(=O)N(C)[C@H](C(=O)N(C)C)CC(=O)N(C)[C@@H](C)C(=O)N[C@@H]([C@@H](C)CC)C(=O)N(C)CC(=O)N(C)[C@H]3CCCCCN(C3=O)[C@@H](Cc3ccc(C(F)(F)F)cc3)C(=O)N(C)CC(=O)N[C@@H](CCc3cc(F)c(C(F)(F)F)c(F)c3)C(=O)N2C1` displays Kd of 0.47 nM

The value of Kd measured for the compound CCCN1C(=O)[C@@H]2CCN2C(=O)CN(C)C(=O)[C@H]([C@@H](C)CC)NC(=O)[C@H](CC(C)C)N(C)C(=O)C[C@@H](C(=O)N2CCOCC2)N(C)C(=O)[C@H](C2CCCC2)N(C)C(=O)C2(CCCC2)NC(=O)[C@@H]2C[C@H](C)CN2C(=O)[C@H](CCc2ccc(C(F)(F)F)c(Cl)c2)NC(=O)CN(C)C(=O)[C@@H]1Cc1ccc(C(F)(F)F)cc1 [PP0457] ([NMeL]I[Sar][Aze][NPrPhe(4-CF3)][Sar][hPhe(3-Cl-4-CF3)][Pro(4S-Me)][Ac5c][NMeGly(cPent)][NMeD]-Morpholide; lactam N-11) turned out to be 0.083 nM

Form: compound = `CCC[C@H]1C(=O)N[C@@H]([C@@H](C)CC)C(=O)N(C2CC2)CC(=O)N(C)[C@H]2C/C=C\CCN(C2=O)[C@@H](Cc2ccc(C(F)(F)F)cc2)C(=O)N(C)CC(=O)N[C@@H](CCc2cc(F)c(C(F)(F)F)c(F)c2)C(=O)N2C[C@H](OCC)C[C@H]2C(=O)NC2(CC(C)(C)C2)C(=O)N(C)[C@@H](CC2CCC2)C(=O)N(C)[C@H](C(=O)N(C)C)CC(=O)N1C` ; Kd = 5.5 nM

// field: Kd; key: CCC[C@H]1C(=O)N[C@@H]([C@@H](C)CC)C(=O)N(C)CC(=O)N(C)CC(=O)N(CCC)[C@@H](Cc2ccc(C(F)(F)F)cc2)C(=O)N(C)CC(=O)N[C@@H](CCc2ccc(C(F)(F)F)c(Cl)c2)C(=O)N2CC(F)(F)C[C@H]2C(=O)NC2(CCCC2)C(=O)N(C)[C@@H](C2CCCC2)C(=O)N(C)[C@H](C(=O)N2CCOCC2)CC(=O)N1C [PP0201] ([NMeNva]I[Sar][Sar][NPrPhe(4-CF3)][Sar][hPhe(3-Cl-4-CF3)][Pro(4,4-F2)][Ac5c][NMeGly(cPent)][NMeD]-Morpholide; lactam N-11) ; value = 0.06 nM

Reported Kd ( CCCN1C(=O)CN(C)C(=O)[C@@H]2CCN2C(=O)[C@H]([C@@H](C)CC)NC(=O)[C@H](CC(C)C)N(C)C(=O)C[C@@H](C(=O)N2CCOCC2)N(C)C(=O)[C@H](CC(F)(F)F)N(C)C(=O)C2(CCCC2)NC(=O)[C@@H]2CCCN2C(=O)[C@H](CCc2cc(F)c(C(F)(F)F)c(F)c2)NC(=O)CN(C)C(=O)[C@@H]1Cc1ccc(C(F)(F)F)cc1 [PP0784] ([NMeL]I[Aze][Sar][NPrPhe(4-CF3)][Sar][hPhe(3,5-F2-4-CF3)]P[Ac5c][NMeAbu(4,4,4-F3)][NMeD]-Morpholide; lactam N-11) ) = 17 nM
